- Test system: Neuregulin-1 EGF-like domain
- Assay text: binders of neuregulin-1 EGF-like domain, primary screen, biochemical, small-molecule microarray, 635 nm fluorescence (AID 1081);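 further: binding of the protein to compounds printed on small-molecule microarray slides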
- Condition summary: small-molecule microarray binding, higher = more signal
We begin with a simple list: items and their reported composite z-score.
Lab note: write the figure by itself, no unit.

Please review the entries below; each comes with its answer.
Endpoint output: composite z-score of `CCOC(=O)C1=C[C@@H](c2ccccc2)N(S(=O)(=O)c2ccc(C)cc2)[C@H]1c1cccc(Cl)c1` . Value?
0.991

Endpoint output: composite z-score of O=C1NC(=O)C2C1C=CC(C(O)c1ccc(Br)cc1)N2Nc1ccccn1 (configuration not stated) . Value?
0.95

Endpoint output: composite z-score of `[N-]=[N+]=Nc1ccccc1[C@H]1OC(c2ccc(OCCCO)cc2)=N[C@@]1(CCS(=O)(=O)c1ccccc1)C(=O)N1CCCCC1` . Value?
1.2

Endpoint output: composite z-score of `O=C1O[C@@H](c2ccccc2)[C@@H](c2ccccc2)N2[C@@H](c3ccc(O)cc3)[C@]3(C(=O)Nc4ccccc43)[C@@H](C(=O)Nc3nc4ccccc4s3)[C@H]12` . Value?
1.15

Endpoint output: composite z-score of CCOC(=CC(=O)OC)CC(O)c1cccc(Cl)c1 (configuration not stated) . Value?
1.37

***
Endpoint output: composite z-score of O=C1OCC=C[C@H]2OC34C=CCN(Cn5nnc6ccccc65)C(=O)[C@H]3N(CCCCCCO)C(=O)[C@@H]4[C@@H]12 (some centres not stated) . Value?
1.52

Endpoint output: composite z-score of `COC(=O)[C@@]1(Cc2ccc(OC)cc2)[C@H]2c3cc(C(=O)N(C)C)n(CCc4c[nH]c5ccc(O)cc45)c3C[C@H]2CN1C(=O)c1ccccc1` . Value?
1.25

----------
- Assay text: binders of probe aFSTL3 on microarray, primary screen, stem cell growth factor project, biochemical, small-molecule microarray, fluorescence 635/667 (AID 1064);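 further: measures binding of the biotinylated anti-FSTL3 antibody to printed compounds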
- Condition summary: higher = more signal
Okay, here is how we bin by composite z-score: lower level (below 0.3), middle level (0.3 to below 0.7), upper level (0.7 or more)

Here's what some known entries look like.
Hey, which category is O=C1NC(=O)C2C1C=CC(C(O)c1c(F)cccc1Cl)N2Nc1ccccn1 (stereo unspecified) in, do you know?
lower level

Hey, which category is `COCCCNC(=O)[C@@H]1c2ccccc2C(=O)N(Cc2ccccc2C(F)(F)F)[C@H]1c1ccc(CO)cc1` in, do you know?
middle level

***
Hey, which category is `CC(C)(C)OC(=O)CC[C@@]1(C(=O)O)N=C(c2ccc(OCCCO)cc2)O[C@@H]1c1ccccc1CN=[N+]=[N-]` in, do you know?
upper level

Hey, which category is [N-]=[N+]=NCc1ccccc1C[C@]1(C(=O)NCC(O)CO)N=C(c2ccc(OCCCO)cc2)O[C@H]1c1ccccc1CN=[N+]=[N-] (stereo partly specified) in, do you know?
lower level

Hey, which category is `Cc1ccc(S[C@]2(C(=O)NC(C)C)CC(=O)N(C3Cc4ccccc4C3)[C@@H]2c2ccc(CO)cc2I)cc1` in, do you know?
lower level

Hey, which category is `Cc1ccc(S[C@]2(C(=O)NC(C)C)CC(=O)N(Cc3ccccc3C(F)(F)F)[C@@H]2c2ccc(CO)cc2I)cc1` in, do you know?
upper level

Hey, which category is `COCCCNC(=O)[C@@]1(Sc2ccc(C)cc2)CC(=O)N(C2Cc3ccccc3C2)[C@@H]1c1ccc(CO)cc1I` in, do you know?
upper level

Hey, which category is CCCCN1CC=CC23O[C@@H]4/C=C\CCC(C)OC(=O)C4[C@H]2C(=O)N(CCCCCCO)[C@@H]3C1=O (stereo partly specified) in, do you know?
middle level

Hey, which category is NC(=O)N1C(=O)C2C(C1=O)C1C=C(c3ccc(CO)cc3)C2C(C2CC2)N1Cc1sc2ccccc2c1Cl (stereo unspecified) in, do you know?
lower level

----------
- Assay text: basal HepG2 mitochondrial membrane potential changes, profiling panel, cell-based, JC-1 fluorescence, 24 h, 100 nL compound (AID 1167); further: test concentration not given here
- Condition summary: higher = more signal
We begin with a simple list: items and their reported z-score.

Please review the entries below; each comes with its answer.
Endpoint output: z-score of `CC(C)CNC(=O)[C@@]1(c2ccc([N+](=O)[O-])cc2)CC(=O)N(C2CCCCC2)[C@@H]1c1ccc(CO)cc1I` . Value?
1.15

Endpoint output: z-score of `COCC(=C=CC[C@H](O)c1ccc(OCCO)cc1)C[C@H](O)COCc1ccccc1` . Value?
1.07

Endpoint output: z-score of `CCOC(=O)C[C@H]1[C@H](OC(=O)c2ccc(-c3ccccc3)cc2)[C@@H](NC(=O)c2ccc3ccccc3n2)c2cc(OCCCO)ccc2N1C(=O)c1ccccc1` . Value?
1.35

Now let's try a different one.
Endpoint output: z-score of `C=C(CCCC)C(=O)CC[C@@H](OC(=O)c1ccccc1-c1ccccc1C(=O)O)c1cccc(OCCO)c1` . Value?
-1.88

----------
- System: Neuregulin-1 EGF-like domain
- Assay text: binders of neuregulin-1 EGF-like domain, primary screen, biochemical, small-molecule microarray, 635 nm fluorescence (AID 1081);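 further: binding of the protein to compounds printed on small-molecule microarray slides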
- Condition summary: small-molecule microarray binding, higher = more signal
Recorded endpoint: composite z-score
Lab note: write the figure by itself, no unit.

Please review the entries below; each comes with its answer.
Endpoint output: composite z-score of CC[C@H]1C2=C3C(CC[C@H]4C(OCc5ccc(F)cc5C(F)(F)F)OC[C@](C)([C@@H]34)N(C(=O)OC(C)(C)C)C2)C2COC(=O)OCC21 (stereo partly drawn) . Value?
0.874

Endpoint output: composite z-score of COc1ccc(NN2C(C(O)c3ccccn3)C=CC3C(=O)N(C4CCCCC4)C(=O)C32)cc1 (stereo not drawn) . Value?
1.17

Now let's try a different one.
Endpoint output: composite z-score of `COCCOC(=O)N1C(=O)[C@@]2(c3ccccc31)[C@H](C(=O)N1CCN(c3ncccn3)CC1)[C@H]1C(=O)O[C@H](c3ccccc3)[C@H](c3ccccc3)N1[C@@H]2c1ccc(OCCO)cc1` . Value?
1.28

----------
- System: Luciferin 4-monooxygenase (Photinus pyralis) (UniProt P08659)
- Sequence (P08659 whole entry, looked up): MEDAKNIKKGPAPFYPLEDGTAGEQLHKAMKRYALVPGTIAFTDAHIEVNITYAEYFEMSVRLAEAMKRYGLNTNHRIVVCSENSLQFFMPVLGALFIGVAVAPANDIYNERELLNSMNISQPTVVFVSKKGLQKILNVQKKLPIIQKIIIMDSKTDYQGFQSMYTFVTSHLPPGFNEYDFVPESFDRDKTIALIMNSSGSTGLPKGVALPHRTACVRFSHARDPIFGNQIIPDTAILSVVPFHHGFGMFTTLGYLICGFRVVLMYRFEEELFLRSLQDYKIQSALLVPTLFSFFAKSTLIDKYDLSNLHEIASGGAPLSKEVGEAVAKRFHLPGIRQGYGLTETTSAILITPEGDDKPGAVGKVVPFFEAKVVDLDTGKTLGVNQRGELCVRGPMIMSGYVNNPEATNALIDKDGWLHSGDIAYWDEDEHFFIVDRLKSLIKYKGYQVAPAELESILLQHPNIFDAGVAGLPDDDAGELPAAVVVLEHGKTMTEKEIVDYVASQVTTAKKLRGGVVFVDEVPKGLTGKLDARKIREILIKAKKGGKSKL
- Assay text: firefly luciferase enzyme inhibitors, primary screen, biochemical, luminescence, purified enzyme, 2006 set (AID 1141);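 further: cell-free assay with purified firefly luciferase at 100 ng per well in PBS; test concentration not given here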
- Condition summary: SteadyGlo luminescence, 30 min, higher = more signal, called active from +8 up or from −8 down
Recorded endpoint: z-score
Lab note: write the figure by itself, no unit.

Please review the entries below; each comes with its answer.
Endpoint output: z-score of `[N-]=[N+]=Nc1ccccc1C[C@@]1(C(=O)O)N=C(c2ccc(OCCCO)cc2)O[C@@H]1c1ccccc1` . Value?
-0.972

Endpoint output: z-score of `COC(=O)[C@@]1(Cc2ccc(OC)cc2)[C@H]2c3cc(C(=O)N(C)C)n(CCc4c[nH]c5ccc(O)cc45)c3C[C@H]2CN1C(=O)c1ccccc1` . Value?
1.18

Now let's try a different one.
Endpoint output: z-score of `C=CCOC(=O)[C@@H]1[C@H]2C(=O)O[C@H](c3ccccc3)[C@H](c3ccccc3)N2[C@H](c2ccc(OCCOC(=O)[C@H]3C[C@H]4C(=O)N[C@@H](CCCCN(C)C)C(=O)N4[C@H]3c3cccc(OCCO)c3)cc2)[C@@]12C(=O)Nc1ccc(I)cc12` . Value?
-0.517

----------
- Assay text: basal RPMI8226 mitochondrial membrane potential changes, profiling panel, cell-based, JC-1 fluorescence, 24 h, 100 nL compound (AID 1169); further: test concentration not given here
- Condition summary: RPMI8226 myeloma, JC-1 mitochondrial potential fluorescence, higher = more signal
Recorded endpoint: z-score
Lab note: write the figure by itself, no unit.

Please review the entries below; each comes with its answer.
Endpoint output: z-score of C[C@H]1C2=C3C(CC[C@H]4C(OCc5ccc(F)cc5C(F)(F)F)OC[C@](C)([C@@H]34)N(C(=O)OC(C)(C)C)C2)C(CO)C1CO (some centres not stated) . Value?
-0.522

Endpoint output: z-score of COc1ccc(C(O)C2C=CC3C(=O)N(Cc4ccccc4)C(=O)C3N2n2cnnc2)c2ccccc12 (configuration not stated) . Value?
-0.992

Endpoint output: z-score of `CC(=O)N1Cc2ccccc2C[C@]2(N=C(c3ccc(OCCCO)cc3)O[C@@H]2c2ccccc2)C1=O` . Value?
-0.954

Endpoint output: z-score of `COCCOC(=O)N1C(=O)[C@@]2(c3cc(C#CCNC(N)=O)ccc31)[C@H](C(=O)N1CCCCCCC1)[C@H]1C(=O)O[C@H](c3ccccc3)[C@H](c3ccccc3)N1[C@@H]2c1ccc(O)cc1` . Value?
-0.216

Endpoint output: z-score of `CN(C)CCCNC(=O)[C@@H]1c2ccccc2C(=O)N(CC23CC4CC(CC(C4)C2)C3)[C@H]1c1ccc(CO)cc1` . Value?
-0.296

Endpoint output: z-score of CC1CC/C=C\[C@H]2OC34C=CCN(CCN5CCOCC5)C(=O)[C@H]3N(CCO)C(=O)[C@@H]4C2C(=O)O1 (some centres not stated) . Value?
0.673

Endpoint output: z-score of `COC(=O)[C@@]1(Cc2ccc(OC)cc2)[C@H]2c3cc(C(=O)N(C)C)n(Cc4nc5ccccc5[nH]4)c3C[C@H]2CN1C(=O)c1ccccc1` . Value?
-0.737

Endpoint output: z-score of `[N-]=[N+]=NCc1ccccc1[C@H]1OC(c2ccc(OCCCO)cc2)=N[C@@]1(CCS(=O)(=O)c1ccccc1)C(N)=O` . Value?
-0.397

***
Endpoint output: z-score of `CC(C)C(=C=CC[C@H](O)c1ccc(OCCO)cc1)C[C@H](O)c1cc(Cl)cc(Cl)c1O` . Value?
-0.124

Endpoint output: z-score of `CCOC(=O)[C@H]1C/C=C/C[C@H](C(=O)OCC)C(=O)O[C@H]2[C@@H](OC)O[C@H](CO)[C@@H](OC(=O)CCc3ccccc3)[C@@H]2OC1=O` . Value?
0.655

Endpoint output: z-score of `O=C1O[C@@H](c2ccccc2)[C@@H](c2ccccc2)N2[C@@H](c3ccc(O)cc3)[C@]3(C(=O)Nc4ccc(C#CCCO)cc43)[C@@H](C(=O)NC[C@H](O)c3ccccc3)[C@H]12` . Value?
0.198

The reported numbers originate from PubChem BioAssay.
